Value source: patent US12343430B2

# method-description: Solubility time profile of co-attrited Carbamazepine at 37° C. (Example 12)
# Assay type: physicochemical
# study-conditions: deionised water, thermodynamic from solid, 90 min, 100 mL DI water, 0.45 μm filter, UV 285 nm
measurement-label: solubility at 90 min (µg/mL)
Answer format: numeric, µg/mL implied, no suffix.

Lookup: Dear colleague, please send me the reported solubility at 90 min for NC(=O)N1c2ccccc2C=Cc2ccccc21 [Carbamazepine API, Carbamazepine] when you can.
Found: 316

###

# method-description: Solubility time profile of co-attrited Carbamazepine at 37° C. (Example 12)
# Type: physicochemical
# study-conditions: deionised water, thermodynamic from solid, 5 min, 100 mL DI water, 0.45 μm filter, UV 285 nm
measurement-label: solubility at 5 min (µg/mL)
Answer format: numeric, µg/mL implied, no suffix.

Lookup: Dear colleague, please send me the reported solubility at 5 min for NC(=O)N1c2ccccc2C=Cc2ccccc21 [Carbamazepine API, Carbamazepine] when you can.
Found: 404

###

# method-description: Solubility time profile of co-attrited Carbamazepine at 37° C. (Example 12)
# Format: physicochemical
# study-conditions: deionised water, thermodynamic from solid, 15 min, 100 mL DI water, 0.45 μm filter, UV 285 nm
measurement-label: solubility at 15 min (µg/mL)
Answer format: numeric, µg/mL implied, no suffix.

Lookup: Dear colleague, please send me the reported solubility at 15 min for NC(=O)N1c2ccccc2C=Cc2ccccc21 [Carbamazepine API, Carbamazepine] when you can.
Found: 401

###

# method-description: Solubility time profile of co-attrited Carbamazepine at 37° C. (Example 12)
# Assay type: physicochemical
# study-conditions: deionised water, thermodynamic from solid, 10 min, 100 mL DI water, 0.45 μm filter, UV 285 nm
measurement-label: solubility at 10 min (µg/mL)
Answer format: numeric, µg/mL implied, no suffix.

Lookup: Dear colleague, please send me the reported solubility at 10 min for NC(=O)N1c2ccccc2C=Cc2ccccc21 [Carbamazepine API, Carbamazepine] when you can.
Found: 402

###

# method-description: Solubility time profile of co-attrited Carbamazepine at 25° C., HPLC (Example 14)
# Format: physicochemical
# study-conditions: deionised water, thermodynamic from solid, 45 minutes, 500 mL DI water, paddle 100 rpm, read-out: Solubility, drug concentration
measurement-label: solubility at 45 min (µg/mL)
Answer format: numeric, µg/mL implied, no suffix.

Lookup: Dear colleague, please send me the reported solubility at 45 min for NC(=O)N1c2ccccc2C=Cc2ccccc21 [Carbamazepine API, Carbamazepine] when you can.
Found: 175

###

# method-description: Solubility time profile of co-attrited Carbamazepine at 37° C. (Example 12)
# Format: physicochemical
# study-conditions: deionised water, thermodynamic from solid, 120 min, 100 mL DI water, 0.45 μm filter, UV 285 nm
measurement-label: solubility at 120 min (µg/mL)
Answer format: numeric, µg/mL implied, no suffix.

Lookup: Dear colleague, please send me the reported solubility at 120 min for NC(=O)N1c2ccccc2C=Cc2ccccc21 [Carbamazepine API, Carbamazepine] when you can.
Found: 303
